# target of assay: Neuraminidase (Influenza A virus (A/Puerto Rico/8/1934(H1N1)), UniProt P03468)
# Sequence (P03468 whole entry): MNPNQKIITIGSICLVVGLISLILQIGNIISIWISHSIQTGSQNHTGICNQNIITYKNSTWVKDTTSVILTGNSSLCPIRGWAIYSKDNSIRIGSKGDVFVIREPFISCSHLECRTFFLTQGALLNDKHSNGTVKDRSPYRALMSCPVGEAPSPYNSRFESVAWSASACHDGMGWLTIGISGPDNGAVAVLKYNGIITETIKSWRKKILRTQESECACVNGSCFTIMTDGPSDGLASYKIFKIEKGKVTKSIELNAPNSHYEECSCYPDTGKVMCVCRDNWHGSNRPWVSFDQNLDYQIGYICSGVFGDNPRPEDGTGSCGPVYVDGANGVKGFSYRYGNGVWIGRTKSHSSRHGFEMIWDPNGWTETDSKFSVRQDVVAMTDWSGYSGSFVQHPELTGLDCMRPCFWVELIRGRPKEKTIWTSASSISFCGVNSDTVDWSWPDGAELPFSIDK
# experiment notes: Inhibition of neuraminidase in Influenza A
Decide using IC50 alone. Strictly below 0.05 µM: MET. Equal to or above 0.05 µM: NOT MET.

{"columns": ["molecule smiles", "category label"],
 "data": [
  ["CC(=O)N[C@H]1[C@H](N2CCOCC2)C=C(C(=O)O)C[C@@H]1N", "NOT MET"]
]}

[Q] Please let me know if CC(=O)N[C@H]1[C@H](N2CCCCC[C@@H]2CO)C=C(C(=O)O)C[C@@H]1N shows IC50 below 0.05 µM.
[A] MET

[Q] Please let me know if CC(=O)N[C@H]1[C@H](N2CCCC2)C=C(C(=O)O)C[C@@H]1N shows IC50 below 0.05 µM.
[A] NOT MET

[Q] Please let me know if CCC1(CC)CN([C@@H]2C=C(C(=O)O)C[C@H](N)[C@H]2NC(C)=O)C1 shows IC50 below 0.05 µM.
[A] NOT MET

[Q] Please let me know if CC(=O)N[C@H]1[C@H](N2CCN(C)CC2)C=C(C(=O)O)C[C@@H]1N shows IC50 below 0.05 µM.
[A] NOT MET
